Biological target: Acetylcholinesterase (Electrophorus electricus, UniProt O42275)
Sequence (O42275 whole entry): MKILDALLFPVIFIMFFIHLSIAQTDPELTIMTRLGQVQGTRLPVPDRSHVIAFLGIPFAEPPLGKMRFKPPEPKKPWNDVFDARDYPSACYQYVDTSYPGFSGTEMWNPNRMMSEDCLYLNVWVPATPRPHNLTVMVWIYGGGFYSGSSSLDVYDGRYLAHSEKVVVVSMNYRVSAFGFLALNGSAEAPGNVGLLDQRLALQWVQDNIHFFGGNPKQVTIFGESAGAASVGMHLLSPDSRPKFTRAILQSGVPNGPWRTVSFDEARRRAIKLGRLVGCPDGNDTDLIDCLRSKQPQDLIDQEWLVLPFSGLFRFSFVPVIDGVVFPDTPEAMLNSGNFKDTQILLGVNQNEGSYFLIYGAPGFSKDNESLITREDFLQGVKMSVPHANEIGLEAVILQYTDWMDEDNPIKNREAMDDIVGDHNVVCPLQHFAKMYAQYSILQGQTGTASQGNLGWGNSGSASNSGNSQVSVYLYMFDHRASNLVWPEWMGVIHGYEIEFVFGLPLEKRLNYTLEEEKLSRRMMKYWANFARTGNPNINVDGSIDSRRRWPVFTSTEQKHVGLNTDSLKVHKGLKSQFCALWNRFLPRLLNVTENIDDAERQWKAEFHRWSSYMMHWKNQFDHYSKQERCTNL
Assay: Compound was assessed for in vitro inhibition of Acetylcholinesterase isolated from Electrophorus electricus
pIC50: −log10 of the molar value.
Below, each entry is listed alongside its reported pIC50.

- molecule: "COc1ccc2c3c1OC1C[C@@H](O)C=C[C@@]31CC[N+](CCCCCCCCN1CC[C@@]34C=C[C@H](O)C[C@@H]3Oc3c(OC)ccc(c34)C1)=C2 (stereo partly drawn)"
  pIC50: 7.66
- molecule: "COc1ccc2c3c1OC1C[C@@H](O)C=C[C@@]31CCN(CCCCCCCCCCN1CC[C@@]34C=C[C@H](OC)C[C@@H]3Oc3c(OC)ccc(c34)C1)C2 (stereo partly drawn)"
  pIC50: 6.25
- molecule: "COc1ccc2c3c1OC1C[C@@H](O)C=C[C@@]31CCN(CCCCCCCCN1CC[C@@]34C=C[C@H](OC)C[C@@H]3Oc3c(OC)ccc(c34)C1)C2 (stereo partly drawn)"
  pIC50: 6.64
